SYSTEM: Tyrosyl-DNA phosphodiesterase 2 (Homo sapiens)
PROTOCOL_TEXT: human TDP2 enzyme inhibitors, retest, confirmation, biochemical, epi absorbance, recombinant enzyme (AID 743263);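 further: 0% = vehicle with enzyme and 100% = no enzyme buffer only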
SETTINGS: recombinant human TDP2, absorbance read-out; at 12.8 µM; active compounds read high
In all, about 1,100 compounds went through this assay and about 250 (23%) were called active. Not all results are given here.
RECORDED_METRIC: inhibition (%)
Note: unit % is implicit; provide only the numeric part.

CCOC(=O)c1c(C)[nH]c2c1-c1ccccc1C(=O)C2=O    84.2
COc1ccc2c(c1)c(=Cc1ccc(N(C)C)cc1)c1cc(-c3ccccc3)[n+](C)n12    9.49
CCOC(=O)c1ccc(Nc2cc3ccccc3c(=O)[nH]2)cc1    32.7
Cc1ccc(OCCCCc2c(C)n[nH]c2C)cc1    2.05
Oc1c(C=Nc2cccc3nsnc23)ccc2ccccc12    41.4

Ask: Please provide the recorded inhibition for CN(C)c1ccc(N/C=C/C(=O)C(F)(F)F)cc1 , tested on Tyrosyl-DNA phosphodiesterase 2 (Homo sapiens).
Reply: -9.4

Ask: Return inhibition measured with Tyrosyl-DNA phosphodiesterase 2 (Homo sapiens) given this compound: Cc1ccccc1Cn1c2ccccc2c2cnn(CC(=O)NCc3ccco3)c(=O)c21
Reply: -10.2

Ask: Which inhibition is reported with Tyrosyl-DNA phosphodiesterase 2 (Homo sapiens) for this entry: COc1ccc(-c2csc(Nc3ccc(O)cc3)n2)cc1 ?
Reply: 3.53

Ask: Give the reported inhibition for CC(=O)c1ccc(S(=O)(=O)N2CCC3(CC2)OCCO3)cc1 (system: Tyrosyl-DNA phosphodiesterase 2 (Homo sapiens)).
Reply: -6.04

Ask: Lab note: need inhibition for CC(C)Cn1c(N)c(C(=O)NCc2cccs2)c2nc3ccccc3nc21 on Tyrosyl-DNA phosphodiesterase 2 (Homo sapiens), anyone have it?
Reply: 10.2

Ask: Form field - read-out: inhibition; system: Tyrosyl-DNA phosphodiesterase 2 (Homo sapiens); submitted item: C=CCn1c(N)c(C(=O)OCC(C)C)c2nc3ccccc3nc21
Reply: 9.13

Ask: Reported inhibition for Tyrosyl-DNA phosphodiesterase 2 (Homo sapiens), given CCCCNC(=O)CCn1nc(-c2ccc(Cl)cc2)ccc1=O ?
Reply: -5.6

Ask: Tyrosyl-DNA phosphodiesterase 2 (Homo sapiens) / inhibition / O=C(COC(=O)Cc1c[nH]c2ccccc12)NCCc1ccccc1 : value?
Reply: 4.15

----------
SYSTEM: Tyrosyl-DNA phosphodiesterase 2 (Homo sapiens) (UniProt O95551)
Sequence (O95551 whole entry, looked up): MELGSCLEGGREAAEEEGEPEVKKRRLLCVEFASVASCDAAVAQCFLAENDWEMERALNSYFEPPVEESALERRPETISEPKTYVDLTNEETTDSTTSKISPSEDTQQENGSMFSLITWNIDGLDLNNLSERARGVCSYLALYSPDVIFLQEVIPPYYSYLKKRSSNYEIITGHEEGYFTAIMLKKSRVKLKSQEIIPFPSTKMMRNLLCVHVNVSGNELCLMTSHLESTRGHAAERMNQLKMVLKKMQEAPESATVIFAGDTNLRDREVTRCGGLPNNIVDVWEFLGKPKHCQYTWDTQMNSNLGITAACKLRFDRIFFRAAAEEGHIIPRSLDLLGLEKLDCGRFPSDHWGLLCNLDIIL
PROTOCOL_TEXT: human TDP2 enzyme inhibitors, retest, confirmation, biochemical, epi absorbance, recombinant enzyme (AID 743263);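 further: 0% = vehicle with enzyme and 100% = no enzyme buffer only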
SETTINGS: recombinant human TDP2, absorbance read-out; at 12.8 µM
Among all 1,100 compounds or so, about 250 (23%) were called active. Rule as the data show it: active = inhibition above about 25%; inactive = the rest. Not all results are given here.
Give one outcome, nothing more. List: label 1 for active, label 0 for inactive

Worked cases, answers included:
O=C(NCc1ccccc1Cl)C(=O)NCC1CCCN1S(=O)(=O)c1cccs1 (stereo not given)    label 0
O=C(OCC(=O)N1CCN(c2ccccc2)CC1)c1ccc([N+](=O)[O-])s1    label 0

Next item in the queue.
Ask: State the result this test recorded for Cc1ccc(Cl)cc1NC(=O)CN1CCN(S(=O)(=O)N2CCOCC2)CC1 .
Reply: label 0

----------
SYSTEM: Tyrosyl-DNA phosphodiesterase 2 (Homo sapiens) (UniProt O95551)
PROTOCOL_TEXT: human TDP2 enzyme inhibitors, retest, confirmation, biochemical, epi absorbance, recombinant enzyme (AID 743263);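 further: 0% = vehicle with enzyme and 100% = no enzyme buffer only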
SETTINGS: recombinant human TDP2, absorbance read-out; at 12.8 µM
About 250 (23%) of roughly 1,100 compounds were called active. Rule as the data show it: active = inhibition above about 25%; inactive = the rest. A selection follows.
// allowed return values: 1 (yes) = active, 0 (no) = inactive

Previously resolved entries follow.
O=S(=O)(Nc1ccc(O)c2ccccc12)c1ccc(OC(F)(F)F)cc1    0 (no)
COc1cc(OC)cc(C(=O)OCC(=O)Nc2sccc2C(N)=O)c1    0 (no)
CN1c2ccc(C=O)c3c(C=O)ccc(c23)N(C)C1(C)C    0 (no)

Ask: # outcome recorded in this test, key = O=C(NC1CCCCC1)N1CCc2[nH]c3ccccc3c2C1
Reply: 0 (no)

Ask: Check the results log: what was the call for O=C(NC1=CC(=O)c2ccccc2C1=O)c1ccccc1 ?
Reply: 1 (yes)

Ask: Field: outcome | Entry: Clc1ccc(C2=CSC3=Nc4cccc5cccc(c45)N23)cc1
Reply: 1 (yes)

----------
SYSTEM: Tyrosyl-DNA phosphodiesterase 2 (Homo sapiens)
PROTOCOL_TEXT: human TDP2 enzyme inhibitors, retest, confirmation, biochemical, epi absorbance, recombinant enzyme (AID 743263);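 further: 0% = vehicle with enzyme and 100% = no enzyme buffer only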
SETTINGS: recombinant human TDP2, absorbance read-out; at 12.8 µM; active compounds read high
Screen size: about 1,100 compounds; about 250 (23%) were called active. A selection follows.
RECORDED_METRIC: inhibition (%)
Return type: number; implicit unit %.

Record excerpt, results attached:
COc1ccccc1C1C(C#N)=C(N)Oc2c1c(-c1ccccc1)nn2-c1ccccc1 (stereo unspecified)    -0.56
CCN1C(=O)c2cccc3c(N)ccc1c23    8.24

Ask: So what's the measured inhibition for this one? CCOc1ccc(C(c2c(C)[nH][nH]c2=O)c2c(C)[nH][nH]c2=O)cc1OCC
Reply: 10.8

Ask: inhibition for Cc1ccc(C(=O)Nc2c(-c3ccccc3)[nH][nH]c2=O)cc1 ?
Reply: 12.1

Ask: Report inhibition for Cc1ccc(S(=O)(=O)N2CCC(C(=O)NCCC3=CCCCC3)CC2)cc1C please.
Reply: -3.83

Ask: Entry under review: NC1=CC(=O)C(=O)c2cccnc21 . Reported inhibition?
Reply: 65.8

Ask: Endpoint output: inhibition of COc1ccc(S(=O)(=O)/N=C2\C=C(NS(=O)(=O)c3ccccc3)C(=O)c3ccccc32)cc1 . Value?
Reply: 16.7

Ask: Give the measured inhibition of COc1cc(NC(=O)COC(=O)c2ccc([N+](=O)[O-])s2)cc(OC)c1OC .
Reply: 35.1

Ask: So what's the measured inhibition for this one? CC(=O)N(C1=C(Cl)C(=O)c2ccccc2C1=O)c1ccc(C(=O)O)cc1
Reply: 59.3

Ask: Look up inhibition for this molecule: CCc1ccccc1NC(=S)Nc1cc(OC)c(NC(=O)C(C)C)cc1OC
Reply: 2.01

Ask: Query: inhibition; subject: CCCCCCCCc1c(O)nc(-n2[nH]c(C)c(CCO)c2=O)[nH]c1=O
Reply: 27.3
